- method description: Novel Modifiers of Survival Motor Neuron (SMN) Protein: Gene Identification via Genome-wide siRNA Screen;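 further: luminescence tracks full-length SMN protein made from the SMN2 reporter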
- experimental conditions: HEK293T SMN2-luciferase reporter, siRNA knockdown, 72 h; actives lie on both sides
Hit rate of the full screen: of about 31,000 sequences, about 1,400 (4.5%) were called active.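 How the source made its calls: active means median seed-adjusted z-score above 1 or below -1; inactive means the rest.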 Many of the other results were omitted from the sample, so actives are more common in it than they were.
Outcomes: true (1) for active, false (0) for inactive

>>> answer_label("GGACAAAGUCCUAAAGAAATT against MGC21874")
"false (0)"
>>> answer_label("GACUCAAUGCUACUAUCAATT against ADAM32")
"true (1)"
>>> answer_label("CAAGUUCUAUCACUCCUUUTT against IRX2")
"false (0)"
>>> answer_label("CAGUCGUUGCUGUCAAAAATT against RGS9")
"false (0)"
>>> answer_label("GAUAAAAACAGUCCUUUCUTT against FXYD3")
"false (0)"
>>> answer_label("CUACGAGAAUAAUUCGGAATT against THOC1")
"true (1)"

###

- method description: Novel Modifiers of Survival Motor Neuron (SMN) Protein: Gene Identification via Genome-wide siRNA Screen;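 further: luminescence tracks full-length SMN protein made from the SMN2 reporter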
- experimental conditions: HEK293T SMN2-luciferase reporter, siRNA knockdown, 72 h; actives lie on both sides
Out of some 31,000 sequences screened, about 1,400 (4.5%) were called active.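 How the source made its calls: active means median seed-adjusted z-score above 1 or below -1; inactive means the rest.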 Many of the other results were omitted from the sample, so actives are more common in it than they were.
Outcomes: active, inactive

>>> answer_label("ACGGCAAGGUGUUCGAUGUTT against PGRMC1")
"inactive"
>>> answer_label("GCGUGAUCAUCGAUGUGGATT against SLC5A7")
"inactive"
>>> answer_label("GCAUCGGGAAUAAAAUUUATT against LSM2")
"active"
>>> answer_label("CAACGAGAAUGACUGCUGATT against PTPDC1")
"inactive"
>>> answer_label("CGGCGUCUCUACUACGUCUTT against CLEC11A")
"active"
>>> answer_label("GGAUCCUUACUUCUUGUCATT against COQ2")
"inactive"
>>> answer_label("GAGUCGAGUUUGAUGAAGATT against GSTA4")
"inactive"
>>> answer_label("GAGCAGAUCUUUUUAUGCATT against ZNF664")
"active"
>>> answer_label("GAAUAUUCUCGAUUUAAUATT against PPP1R3D")
"inactive"
>>> answer_label("GGAACAGGAUGAAUAUGCATT against HADHB")
"inactive"
>>> answer_label("GAUUCUUUUGAAAAAGUGATT against ZNF675")
"inactive"
>>> answer_label("ACAACUUCGUUUUCGGUCATT against TUBB2C")
"inactive"
>>> answer_label("CCCUGGACGCUGAUGAGUUTT against CAPS")
"active"
>>> answer_label("GAUCAGGAGUCCUUCAAUATT against RAB1A")
"inactive"
>>> answer_label("GCUUUUGCAUGGAUGUGCATT against ELTD1")
"inactive"
>>> answer_label("GGUUGAAGCUUAUUGCAGATT against HARS2")
"inactive"
>>> answer_label("GAUUGUCUCUUUAGUGGAATT against TGDS")
"inactive"
>>> answer_label("CGUUAUUGCCUGUUUGGAATT against GUCY1A2")
"inactive"
>>> answer_label("CCAUGUUCAUCAAAACUCUTT against ARHGAP1")
"active"
>>> answer_label("GGAACAGCUUAAGAUUGAATT against GNG3")
"inactive"
>>> answer_label("GCUCAAGGCAUUCUACAAATT against SLC25A1")
"inactive"
>>> answer_label("GCUUACUAGUUUGAACGGATT against SPATA5")
"active"
>>> answer_label("GUGUAAAACUUGUCAGCGATT against WT1")
"inactive"
>>> answer_label("CGUCAUCAGACUCAAUGAATT against 12-Sep")
"inactive"
>>> answer_label("AAACAUUAUUUACCAUUCATT against ZNF439")
"inactive"
>>> answer_label("GAGCAGUUCGAACACCUUATT against RBM4B")
"inactive"
>>> answer_label("GAUAAAAGGUUACAAACGATT against HIF1AN")
"inactive"
>>> answer_label("CAUUCAGCUUGUCACGUCATT against THOC4")
"active"
>>> answer_label("GUAAUACGAGGAAAUAGUATT against SNRPG")
"active"
>>> answer_label("CACUAUCAGUUGGAACAGATT against CD36")
"inactive"
>>> answer_label("CGGAGGUGACUGACAGAUATT against CAMKV")
"inactive"
>>> answer_label("CAAUAGGAUUAUCAUGAGATT against MRS2")
"active"
>>> answer_label("CCCUUAAACUCGAACCCAATT against HLX")
"inactive"
>>> answer_label("GCUCAAGAGCUUGCACAGATT against SLC25A42")
"active"
>>> answer_label("GGACUCAGACGAGUUUUAUTT against CYP11B1")
"inactive"
>>> answer_label("GGCUGUUCGAGUCCUGAAATT against FMO1")
"inactive"
>>> answer_label("GAGUUUAAUCUGAUUGAUATT against MOBKL1B")
"inactive"
>>> answer_label("GGAUCCCUAUGUUCGGAAATT against AP2B1")
"inactive"
>>> answer_label("ACAUCUCCGAAAUCGCCUATT against SLC2A8")
"inactive"
>>> answer_label("CAAUCAUGUCGAGAAAUAATT against TGIF2LX")
"inactive"
>>> answer_label("GGACAGUCUUCUGUAUGCATT against RBM39")
"active"
>>> answer_label("GCACGAGGCUGGUACAGUUTT against MFNG")
"inactive"
>>> answer_label("CAGUUCAAGUGACCAUUGATT against CD300LF")
"inactive"
>>> answer_label("GAUCCUAUCGUAGACAUGATT against ZNF440")
"inactive"
>>> answer_label("CCUCCGGAGAGAAAAAUGATT against NXF2")
"inactive"
>>> answer_label("CAAGCCUGAUUUCCACCUATT against DTD1")
"active"
>>> answer_label("CCCAAUCCCUAUUUGAGAATT against ADRA1D")
"inactive"
>>> answer_label("GGAAUGCUCCAAAAUGGGATT against FKBP1B")
"inactive"
>>> answer_label("GGAAUGCAAUUCUCAGAGATT against LCN2")
"inactive"
>>> answer_label("GGAUAUCAAUCGAGUACAATT against PIK3R3")
"active"
